- System: YES
- Construct: gene YES1
- experimentalConditions: concentration: 1 μM, replicates: in singlicate; n = 1;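 further: KINOMEscan kinase panel screen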
Hi there, I'd appreciate the recorded %Inh for every entry that follows.
Report the figure along with its unit, number first.

Consider the reported %Inh for these compounds:
[[record]]
compound = "Cc1cccc(Nc2nc(NCCN)ncc2C(N)=O)c1 [GSK1292139]"
valueobserved = "6%"

[[record]]
compound = "CC(C)(C)c1ccc(C(=O)Nc2cn3cc(-n4ccnc4)ccc3n2)cc1"
valueobserved = "0%"


Next:
For YES, give the measured %Inh of the entry O=C(O)C(F)(F)F.O=c1[nH]ccc2nc(N[C@@H]3CCNC3)nc(Nc3cc(Cl)cc(Cl)c3)c12 [GSK2188764]
12%

* * *

- System: NEK7
- experimentalConditions: concentration: 1 μM, replicates: in singlicate; n = 1
assayMetric: %Inh (%)
Numbers only, in %.

The cases that follow already have their %Inh on record.
[[record]]
compound = "Cn1cc(-c2ccc3c(c2)CCN3C(=O)Cc2cc(F)cc(F)c2F)c2c(N)ncnc21"
assaymetric = "%Inh"
valueobserved = 0

[[record]]
compound = "c1ccc(Oc2ccc(Nc3ccnc4cc(-c5ccc(CN6CCCCC6)o5)ccc34)cc2)nc1"
assaymetric = "%Inh"
valueobserved = 0

[[record]]
compound = "Cl.O=C(Nc1ccc(Oc2ccc3[nH]c(NC(=O)c4ccco4)nc3c2)cc1)Nc1cc(C(F)(F)F)ccc1F"
assaymetric = "%Inh"
valueobserved = 0

[[record]]
compound = "COc1cc(Nc2nccc(N3CCC(NC(=O)Nc4ccc5c(c4)OCO5)C3)n2)cc(OC)c1OC (centres unmarked)"
assaymetric = "%Inh"
valueobserved = 29

[[record]]
compound = "O=C(Nc1n[nH]c2nc(-c3ccccc3)ccc12)C1CC1"
assaymetric = "%Inh"
valueobserved = 0


Hi! Can you tell me %Inh for each of these compounds?
1. Cl.N#CCc1ccc(Nc2nccc(Nc3ccc(Oc4ccccc4)cc3)n2)cc1
2. Cc1ccc(Nc2ccnc(Nc3ccc(C)c(F)c3)n2)cc1O.Cl
3. CN(c1ccc2c(c1)nc(NCc1ccccc1)n2C)c1ccnc(Nc2ccc(CS(C)(=O)=O)cc2)n1.Cl
4. CC(C)NCC(Cc1ccccc1)NC(=O)c1cc(Br)c(-c2ccnc3[nH]ccc23)s1.Cl.Cl (centres unmarked)
5. Cc1ccc(C)c(NC(=O)Nc2ccc(C)c(-c3ccc(C(=O)Nc4ccncc4)cc3)c2)c1
6. Cl.Cl.NC(CNC(=O)c1cc(Br)c(-c2ccnc3[nH]ccc23)s1)c1ccccc1 (centres unmarked)
7. CCOc1nccc(-c2c(-c3ccc(F)cc3)ncn2C2CCNCC2)n1
8. O=C(Nc1c(F)cccc1F)c1cc(C(=O)c2ccccc2F)c[nH]1

1. 0
2. 0
3. 8
4. 0
5. 0
6. 0
7. 10
8. 0

Look up %Inh of Nc1cccc(-c2ccc3c(N)n[nH]c3c2)c1 and report it.
0

* * *

Would you mind telling me the reported %Inh of each entry?
- System: SIK2
- experimentalConditions: concentration: 1 μM, replicates: in singlicate; n = 1
# number then unit; no other words

Recorded %Inh, per entry:
[[record]]
compound = "COc1cc(Nc2nccc(N3CCC(NC(=O)Nc4ccc5c(c4)OCO5)C3)n2)cc(OC)c1OC (stereo not drawn)"
assaymetric = "%Inh"
valueobserved = "0%"

[[record]]
compound = "Cl.Cl.NCC(NC(=O)c1cc(-c2cccnc2)c(-c2ccnc3[nH]ccc23)s1)c1ccccc1 (stereo not drawn)"
assaymetric = "%Inh"
valueobserved = "0%"

[[record]]
compound = "CN(C)CCNS(=O)(=O)c1ccc(-c2ccnc3[nH]ccc23)cc1"
assaymetric = "%Inh"
valueobserved = "11%"

[[record]]
compound = "O=C(Nc1c(F)cccc1F)c1cc(C(=O)c2ccccc2F)c[nH]1"
assaymetric = "%Inh"
valueobserved = "0%"


Please look at the items below and tell me %Inh for each one, in order.
1. Cc1ccc(C)c(NC(=O)Nc2ccc(C)c(-c3ccc(C(=O)Nc4ccncc4)cc3)c2)c1
2. CCOc1nccc(-c2c(-c3ccc(F)cc3)ncn2C2CCNCC2)n1

["0%", "4%"]

* * *

- System: CHEK2
- experimentalConditions: concentration: 1 μM, replicates: in singlicate; n = 1
assayMetric: %Inh

Some solved cases for reference:
[[record]]
compound = "Cc1ccc(-c2ccc3occ(-c4ccc(S(C)=O)cc4)c3c2)nn1 (stereo not drawn)"
valueobserved = "11%"

[[record]]
compound = "O=C(O)C(F)(F)F.O=c1[nH]ccc2nc(N[C@@H]3CCNC3)nc(Nc3cc(Cl)cc(Cl)c3)c12"
valueobserved = "85%"

[[record]]
compound = "CS(=O)(=O)c1cccc(CNc2nc(Nc3ccc4c(c3)CCC(=O)N4)ncc2C(F)(F)F)c1"
valueobserved = "0%"

[[record]]
compound = "O=C(Nc1c(F)cccc1F)c1cc(C(=O)c2ccccc2F)c[nH]1"
valueobserved = "11%"

[[record]]
compound = "Cc1ccc(NC(=O)c2ccnc(N3CCCCC3)c2)cc1-c1ccc(C(=O)NCC2CC2)cc1"
valueobserved = "39%"


API: the following record is the query input.
Enter %Inh (test system CHEK2) for Cl.Cl.NC(CNC(=O)c1cc(Br)c(-c2ccnc3[nH]ccc23)s1)c1ccccc1 (stereo not drawn)
46%

* * *

- Test system: ASK1
- Construct: gene MAP3K5
- experimentalConditions: concentration: 1 μM, replicates: in singlicate; n = 1
Returns MET if the recorded %Inh is greater than or equal to 2%, and NOT MET otherwise.

Worked examples, 3 molecules total:
[[record]]
molecule = "Cc1ccc(O)cc1Nc1ccnc2ccc(C(C)(C)C)cc12 [GW856805]"
systemname = "ASK1"
classlabel = "NOT MET"

[[record]]
molecule = "NCCC(NC(=O)c1cc(Br)c(-c2ccnc3[nH]ccc23)s1)c1ccccc1.O=C(O)C(F)(F)F.O=C(O)C(F)(F)F (centres unmarked) [GSK1307810]"
systemname = "ASK1"
classlabel = "MET"

[[record]]
molecule = "Cl.Cl.NC(CNC(=O)c1cc(Br)c(-c2ccnc3[nH]ccc23)s1)c1ccccc1 (centres unmarked) [GSK1322949]"
systemname = "ASK1"
classlabel = "NOT MET"


State whether the measured %Inh reaches 2%, counting equality as reaching it, for CN(C)c1ncnc2nc[nH]c12 [SKF-31736]
NOT MET

Please tell me: is the molecule O=C(Nc1n[nH]c2cc(-c3cccs3)ccc12)C1CC1 [SB-731284] at or over 2% in terms of %Inh?
NOT MET

Determine whether this molecule has %Inh no lower than 2%: COc1cc(Nc2nccc(N3CCC(NC(=O)Nc4ccc5c(c4)OCO5)C3)n2)cc(OC)c1OC (centres unmarked) [GSK1379766]
MET

Tell me whether %Inh is at least 2% here: Nc1cccc(-c2ccc3c(N)n[nH]c3c2)c1 [GSK2193613]
NOT MET

* * *

Provide the reported %Inh of each item.
- Test system: MEK5
- Construct: gene MAP2K5
- experimentalConditions: concentration: 1 μM, replicates: in singlicate; n = 1
Give bare numbers, in %.

Example compounds with recorded %Inh:
[[record]]
compound = "CN(C)CCNS(=O)(=O)c1ccc(-c2ccnc3[nH]ccc23)cc1 [GSK977620]"
systemname = "MEK5"
assaymetric = "%Inh"
valueobserved = 71

[[record]]
compound = "CN(c1ccc(F)c(NC(=O)c2cccc(OC(C)(C)C#N)c2Cl)c1)c1ccc2nc(NC(=O)C3CC3)sc2n1"
systemname = "MEK5"
assaymetric = "%Inh"
valueobserved = 99.8

[[record]]
compound = "CC(C)c1nc(-c2ccc(F)c(NS(=O)(=O)c3c(F)cccc3F)c2)c(-c2ccnc(Nc3ccc(N4CCOCC4)nc3)n2)s1 [GSK1804250]"
systemname = "MEK5"
assaymetric = "%Inh"
valueobserved = 100

[[record]]
compound = "Cl.Cl.NCC(NC(=O)c1cc(-c2cccnc2)c(-c2ccnc3[nH]ccc23)s1)c1ccccc1 (stereo not drawn) [GSK1323434]"
systemname = "MEK5"
assaymetric = "%Inh"
valueobserved = 59

[[record]]
compound = "c1ccc(Oc2ccc(Nc3ccnc4cc(-c5ccc(CN6CCCCC6)o5)ccc34)cc2)nc1 [GW567143]"
systemname = "MEK5"
assaymetric = "%Inh"
valueobserved = 100


Switching to the query record.
Please report %Inh for the following compound: O=C(O)C(F)(F)F.O=c1[nH]ccc2nc(N[C@@H]3CCNC3)nc(Nc3ccc4c(c3)S(=O)(=O)CC4)c12 [GSK2181306]
99.9

* * *

- System: FLT4
- experimentalConditions: concentration: 1 μM, replicates: in singlicate; n = 1
Please use Condition met for %Inh under 40% and Condition not met for everything else, ties included.

Illustrative cases are given below, each with its answer.
[[record]]
compound = "COc1cc(Nc2nccc(N3CCC(NS(=O)(=O)c4ccc(NC(C)=O)cc4)CC3)n2)cc(OC)c1OC"
systemname = "FLT4"
classlabel = "Condition not met"

[[record]]
compound = "O=C1NC(=O)C(c2ccccc2Cl)=C1Nc1cccc(Cl)c1"
systemname = "FLT4"
classlabel = "Condition met"

[[record]]
compound = "COC(=O)Nc1nc2cc(Oc3ccc(NC(=O)Nc4cccc(SC)c4)cc3)ccc2[nH]1.Cl"
systemname = "FLT4"
classlabel = "Condition not met"


Input COc1cc(Nc2nccc(N3CCC(NC(=O)Nc4ccc5c(c4)OCO5)C3)n2)cc(OC)c1OC (centres unmarked) ; condition: %Inh strictly below 40%. Does it hold?
Condition met

Say whether its %Inh is strictly beneath 40%. Entry: Cc1ccc(O)cc1Nc1ccnc2cc(-c3ccc(CN4CCCCC4)o3)ccc12
Condition not met

Criterion: %Inh strictly below 40%. Is it met by Cc1nn2c(=O)cc(N3CCO[C@H](C)C3)nc2n1Cc1cccc(Cl)c1Cl ?
Condition met

Please determine if COc1cccc(NC(=O)NCCNc2ccnc(Nc3ccc(F)cc3)n2)c1 is below 40% in terms of %Inh.
Condition met
